Recorded measurements of IC50, one per entry
Target: BRD4-BD1 (44-164) (Homo sapiens)
Construct: BRD4-BD1 (44-164); made in house; host or cells: E. coli BL21-CodonPlus (DE3)
Test: Alphascreen binding assay BRD4-BD1 (BRD4 biochemical inhibitory activity)
Conditions: read-out: Biochemical activity (IC50 μM) BRD4(1) H4

Use these answered entries as a reference point.
compound	parameter measured	result
Cc1noc(C)c1-c1cnc2c(CC3CC3)cn(S(=O)(=O)CCC(F)(F)F)c2c1	IC50	1 to 10 µM
[2H]C([2H])([2H])n1cc(I)c2cc(-c3c(C)noc3C)cnc21	IC50	1 to 10 µM
Cc1cc2cc(-c3c(C)noc3C)cnc2[nH]1	IC50	1 to 10 µM
Cc1noc(C)c1-c1cnc2[nH]cc(C(=O)C3CCSCC3)c2c1	IC50	≤ 1 µM

Now for another entry.
What IC50 value was documented for this compound, CCCCC(O)(c1cn(C)c2ncc(-c3c(C)noc3C)cc12)C1CCC(F)(F)CC1 (centres unmarked) ?
≤ 1 µM
